- MEASURED_ON: Cathepsin D (Cat D) (Homo sapiens (Human))
- PROTOCOL_SUMMARY: In vitro enzymatic Cathepsin D (Cat D) FRET assay
- Assay type: biochemical
- CONDITION: read-out: CatD IC50
OBSERVABLE: IC50

Please review the following examples before continuing.
# MOLECULE, IC50
rows = [
    ("Cc1cc(C(F)(F)F)cnc1C(=O)Nc1ccc(Cl)c([C@@]2(CF)N=C(N)O[C@@H]3C[C@@H]32)c1 [Example 125]", "> 400 µM"),
    ("COC[C@@]1(c2cc(NC(=O)c3cnc(OC)cn3)ccc2F)N=C(N)O[C@H]2C[C@H]21 [Example 81]", "> 400 µM"),
]

Now for the molecule whose IC50 we want.
Entry C[C@@]1(c2cc(NC(=O)c3ccc(Cl)cn3)cnc2F)N=C(N)O[C@H]2C[C@H]21 [Example 335] , system Cathepsin D (Cat D) (Homo sapiens (Human)): what IC50 was measured?
> 400 µM

###

- MEASURED_ON: Cathepsin D (Cat D) (Homo sapiens (Human))
- PROTOCOL_SUMMARY: In vitro enzymatic Cathepsin D (Cat D) FRET assay
- Format: biochemical
- CONDITION: read-out: CatD IC50
OBSERVABLE: IC50 (µM)

# CPD_SMILES, MEASURED_ON, ENDPOINT_VALUE
records = [
    ("NC1=N[C@](CF)(c2cc(NC(=O)c3cc4ccccc4cn3)ccc2F)[C@H]2C[C@H]2O1", "Cathepsin D (Cat D) (Homo sapiens (Human))", 430),
    ("COc1cnc(C(=O)Nc2cc(C)c(F)c([C@@]3(C(F)F)N=C(N)O[C@@H]4C[C@@H]43)c2)c(C)n1", "Cathepsin D (Cat D) (Homo sapiens (Human))", 447),
    ("COC(=O)c1ccc(C(=O)Nc2cc(F)c(F)c([C@]3(C(F)F)N=C(N)O[C@H]4C[C@H]43)c2)nc1", "Cathepsin D (Cat D) (Homo sapiens (Human))", 343),
]

###

- MEASURED_ON: Cathepsin D (Cat D) (Homo sapiens (Human), UniProt P07339)
- Sequence (P07339 65-412, species assumed): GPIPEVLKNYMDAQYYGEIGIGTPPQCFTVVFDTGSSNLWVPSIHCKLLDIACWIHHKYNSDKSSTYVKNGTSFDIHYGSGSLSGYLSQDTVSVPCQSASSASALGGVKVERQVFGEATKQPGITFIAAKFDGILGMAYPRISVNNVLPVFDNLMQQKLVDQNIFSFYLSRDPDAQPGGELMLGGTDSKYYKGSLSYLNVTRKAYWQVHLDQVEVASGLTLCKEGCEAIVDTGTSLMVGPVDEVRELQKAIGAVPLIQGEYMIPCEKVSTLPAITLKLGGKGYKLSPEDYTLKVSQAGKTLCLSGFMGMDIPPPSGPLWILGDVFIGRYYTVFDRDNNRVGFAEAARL
- PROTOCOL_SUMMARY: In vitro enzymatic Cathepsin D (Cat D) FRET assay
- Assay type: biochemical
- CONDITION: read-out: CatD IC50
pIC50: −log10 of the molar value.
OBSERVABLE: pIC50

Please review the following examples before continuing.
# COMPOUND, pIC50
records = [
    ("COCCOCC(=O)Nc1ccc(F)c([C@@]2(C(F)F)N=C(N)O[C@@H]3C[C@@H]32)c1 [Example 255]", 3.18),
    ("CC#Cc1ccc(C(=O)Nc2ccc(F)c([C@@]3(C(F)F)N=C(N)O[C@@H]4C[C@@H]43)c2)nc1 [Example 314]", 3.38),
    ("NC1=N[C@@](c2cc(NC(=O)c3coc(C#CC4CC4)n3)ccc2F)(C(F)F)[C@H]2C[C@H]2O1 [Example 151]", 3.52),
    ("Cc1ccc(NC(=O)c2ccc(Cl)cn2)cc1[C@@]1(C(F)F)N=C(N)O[C@@H]2C[C@@H]21 [Example 295]", 3.33),
    ("NC1=N[C@@](c2cc(-n3cc(C#CC4CC4)cn3)ccc2F)(C(F)F)[C@H]2C[C@H]2O1 [Example 435]", 3.50),
    ("Cc1cc(NC(=O)c2ccc(Cl)cn2)cc([C@@]2(C(F)F)N=C(N)O[C@@H]3C[C@@H]32)c1F [Example 121]", 3.69),
]

[a] CS(=O)(=O)c1ccc(C(=O)Nc2ccc(F)c([C@@]3(C(F)F)N=C(N)O[C@@H]4C[C@@H]43)c2)nc1 [Example 182]
[b] NC1=N[C@](CF)(c2cc(NC(=O)c3ncc(Cl)cc3F)ccc2Cl)[C@H]2C[C@H]2O1 [Example 442]
[c] COc1cnc(C(=O)Nc2ccc(Cl)c([C@@]3(C(F)F)N=C(N)O[C@@H]4C[C@@H]43)c2)c(C)c1 [Example 101]
[d] N#Cc1ccc(C(=O)Nc2cc(F)c(F)c([C@]3(CF)N=C(N)O[C@H]4C[C@H]43)c2)nc1 [Example 38]
I would appreciate it if you could sort these 4 compounds by pIC50, starting from the smallest number. Rank them, then answer with their labels in that order.
d, b, a, c

###

- MEASURED_ON: Cathepsin D (Cat D) (Homo sapiens (Human))
- PROTOCOL_SUMMARY: In vitro enzymatic Cathepsin D (Cat D) FRET assay
- Assay type: biochemical
- CONDITION: read-out: CatD IC50
Counter-ions that a name gives are not always drawn.
OBSERVABLE: IC50 (µM)

Please review the following examples before continuing.
# COMPOUND, UNIT_ABBREVIATION, IC50
records = [
    ("C=C1CC(CNc2ccc(F)c([C@@]3(C(F)F)N=C(N)O[C@@H]4C[C@@H]43)c2)C1", "µM", 78.9),
    ("COc1ccc(C(=O)Nc2ccc(F)c([C@@]3(C(F)F)N=C(N)O[C@@H]4C[C@@H]43)c2)nn1", "µM", 667),
    ("Cc1c(C(=O)Nc2ccc(F)c([C@@]3(C(F)F)N=C(N)O[C@@H]4C[C@@H]43)c2)nc2ccc(Cl)cn12", "µM", 440),
    ("COc1ccc(C(=O)Nc2ccc(F)c([C@@]3(C(F)F)N=C(N)O[C@@H]4C[C@@H]43)c2)nc1", "µM", 988),
    ("CC#CCOc1cnc(C(=O)Nc2ccc(F)c([C@@]3(C(F)F)N=C(N)O[C@@H]4C[C@@H]43)c2)cn1 [Example 96, trifluoroacetate]", "µM", 467),
    ("NC1=N[C@](CF)(c2cc(Nc3nccc4cc(Cl)cnc34)ccc2F)[C@H]2C[C@H]2O1", "µM", 282),
    ("N#Cc1cnc2c(Nc3ccc(F)c([C@@]4(C(F)F)N=C(N)O[C@@H]5C[C@@H]54)c3)nccc2c1", "µM", 658),
    ("COc1cnc(C(=O)Nc2cc(Cl)c(F)c([C@@]3(CF)N=C(N)O[C@@H]4C[C@@H]43)c2)cn1", "µM", 373),
    ("C#CCOc1cnc(C(=O)Nc2cc(F)c(Cl)c([C@]3(CF)N=C(N)O[C@H]4C[C@H]43)c2)cn1", "µM", 370),
    ("NC1=N[C@@](c2cc(NC(=O)c3cnc(Cl)cn3)ccc2F)(C(F)F)[C@H]2C[C@H]2O1", "µM", 444),
]

[a] NC1=N[C@](c2cc(NC(=O)c3ccc(Cl)cn3)ccc2F)(C(F)F)[C@@H]2C[C@@H]2O1 (racemic) [Example 55]
[b] CC(C)(C)OCC(=O)Nc1ccc(F)c([C@@]2(C(F)F)N=C(N)O[C@@H]3C[C@@H]32)c1
Given the two records a and b , choose the one whose IC50 value is lower. Answer by quoting the chosen item's label.
a

###

- MEASURED_ON: Cathepsin D (Cat D) (Homo sapiens (Human))
- PROTOCOL_SUMMARY: In vitro enzymatic Cathepsin D (Cat D) FRET assay
- Type: biochemical
- CONDITION: read-out: CatD IC50
OBSERVABLE: IC50 (µM)

# MOLECULE, ENDPOINT_VALUE
rows = [
    ("Cn1nc(C(F)F)cc1C(=O)Nc1ccc(F)c([C@@]2(C(F)F)N=C(N)O[C@@H]3C[C@@H]32)c1", 515),
    ("Cc1cc(NC(=O)c2ncc(C#N)cc2F)cc([C@@]2(C(F)F)N=C(N)O[C@@H]3C[C@@H]32)c1F", 690),
    ("N#Cc1cnc2c(Nc3ccc(Cl)c([C@]4(C(F)F)N=C(N)O[C@H]5C[C@H]54)c3)ncc(F)c2c1 [Example 349]", 88.4),
    ("COc1cnc(C(=O)Nc2cc(F)c(F)c([C@@]3(CF)N=C(N)O[C@@H]4C[C@@H]43)c2)cn1", 529),
]

###

- MEASURED_ON: Beta Secretase enzyme (BACE) (Homo sapiens (Human), UniProt P56817)
- Sequence (P56817 46-501): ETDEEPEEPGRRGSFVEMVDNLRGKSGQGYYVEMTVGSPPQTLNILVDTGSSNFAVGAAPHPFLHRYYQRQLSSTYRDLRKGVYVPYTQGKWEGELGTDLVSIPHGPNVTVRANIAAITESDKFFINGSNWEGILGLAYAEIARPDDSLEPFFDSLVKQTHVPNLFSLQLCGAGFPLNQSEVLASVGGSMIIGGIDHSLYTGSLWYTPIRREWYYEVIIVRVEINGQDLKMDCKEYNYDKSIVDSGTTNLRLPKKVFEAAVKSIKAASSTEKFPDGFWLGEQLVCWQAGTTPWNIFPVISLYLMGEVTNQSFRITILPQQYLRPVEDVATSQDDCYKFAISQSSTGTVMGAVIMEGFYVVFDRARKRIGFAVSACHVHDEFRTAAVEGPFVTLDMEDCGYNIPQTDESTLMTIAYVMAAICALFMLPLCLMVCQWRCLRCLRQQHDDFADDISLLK
- PROTOCOL_SUMMARY: In vitro enzymatic BACE FRET assay
- Format: biochemical
- CONDITION: read-out: BACE1 Enzyme assay IC50
pIC50: −log10 of the molar value.
OBSERVABLE: pIC50

# MOLECULE, MEASURED_ON, pIC50
rows = [
    ("Cc1cc(C#N)cnc1C(=O)Nc1ccc(F)c([C@@]2(CF)N=C(N)O[C@@H]3C[C@@H]32)c1", "Beta Secretase enzyme (BACE) (Homo sapiens (Human), UniProt P56817)", 7.49),
]

[a] N#Cc1ccc(C(=O)Nc2ccc(F)c([C@@]3(C(F)F)N=C(N)O[C@@H]4C[C@@H]43)n2)nc1 (racemic) [Example 330]
[b] NC1=N[C@@](c2cc(NC(=O)[C@@H]3CCOC3)ccc2F)(C(F)F)[C@H]2C[C@H]2O1 (mixture of isomers)
[c] CC#CCOc1cnc(C(=O)Nc2ccc(Cl)c([C@]3(C(F)F)N=C(N)O[C@H]4C[C@H]43)c2)cn1 [Example 216]
[d] Cc1cc(C(F)F)cnc1C(=O)Nc1ccc(F)c([C@@]2(CF)N=C(N)O[C@@H]3C[C@@H]32)c1
Rank the 4 molecules: largest pIC50 first, smallest last. Rank them, then answer with their labels in that order.
d, a, c, b

[I] NC1=N[C@](CF)(c2cc(Nc3ncnc4cc(Cl)cnc34)ccc2F)[C@H]2C[C@H]2O1
[II] CC1(C#Cc2ccc(C(=O)Nc3ccc(F)c([C@@]4(C(F)F)N=C(N)O[C@@H]5C[C@@H]54)c3)nc2)COC1
[III] COc1cnc2c(Nc3ccc(F)c([C@@]4(CF)N=C(N)O[C@@H]5C[C@@H]54)c3)ncc(F)c2c1
Rank the 3 molecules: largest pIC50 first, smallest last. Rank them, then answer with their labels in that order.
I, II, III

[a] NC1=N[C@@](c2cc(NC(=O)c3cnc(OCC4CCOCC4)cn3)ccc2F)(C(F)F)[C@H]2C[C@H]2O1
[b] N#Cc1cnc(C(=O)Nc2ccc(F)c([C@@]3(C(F)F)N=C(N)O[C@@H]4C[C@@H]43)c2)c(CO)c1
[c] CC#CCOc1cnc(C(=O)Nc2ccc(F)c([C@@]3(CF)N=C(N)O[C@@H]4C[C@@H]43)c2)cn1
[d] COc1cnc(C(=O)Nc2ccc(F)c([C@@]3(C(F)F)N=C(N)O[C@@H]4C[C@@H]43)c2)cn1
Rank the 4 molecules: largest pIC50 first, smallest last. Rank them, then answer with their labels in that order.
c, b, d, a
(c: 8.66, b: 7.77, d: 7.12, a: 6.89)

[1] N#Cc1ccc(C(=O)Nc2ccc(Cl)c([C@@]3(CF)N=C(N)O[C@@H]4C[C@@H]43)c2)nc1
[2] NC1=N[C@@](c2cc(NC(=O)c3csc(C(F)F)n3)ccc2F)(C(F)F)[C@H]2C[C@H]2O1
[3] COc1cnc2c(Nc3ccc(F)c([C@]4(CF)N=C(N)O[C@H]5C[C@H]54)c3F)nccc2n1
[4] NC1=N[C@@](CF)(c2cc(NC(=O)c3ccc(Cl)cn3)cc(F)c2F)[C@@H]2C[C@@H]2O1
Rank the 4 molecules: largest pIC50 first, smallest last. Rank them, then answer with their labels in that order.
1, 2, 4, 3
(1: 7.25, 2: 6.71, 4: 5.91, 3: 4.90)

[P] COc1cc(C#N)cnc1C(=O)Nc1cc(C)c(F)c([C@@]2(C(F)F)N=C(N)O[C@@H]3C[C@@H]32)c1
[Q] CC(C)c1cc(Cl)cnc1C(=O)Nc1ccc(F)c([C@@]2(C(F)F)N=C(N)O[C@@H]3C[C@@H]32)c1
Given the two records P and Q , choose the one whose pIC50 value is lower. Answer by quoting the chosen item's label.
Q

Reference for the values: patent US9085576B2
